Would you mind telling me the reported Activity of each entry?
# Test system: Rattus norvegicus
# Protocol details: Antidyslipidemic activity in Charles foster rat assessed as decrease in triton WR-1339-induced total cholesterol level in plasma at 100 mg/kg, po after 18 hrs relative to triton-treated rat
# Assay type: functional
# Design: scale not given: the % may be the effect or the level left
Reply numerically in %, unit not repeated.

## Task I am curious: what Activity value has been reported for C=C1CC[C@@H]2[C@](C)(CO)[C@H](O)CC[C@@]2(C)[C@@H]1C/C=C1/C(=O)OC[C@H]1O [ANDROGRAPHOLIDE] ?
## Result 27

## Task Consider the molecule shown here: C=C1CC[C@@H]2[C@](C)(CO)[C@H](O)CC[C@@]2(C)[C@@H]1CCC1=CCOC1=O [DEOXYANDROGRAPHOLIDE] What is its recorded Activity?
## Result 17

## Task Activity lookup needed for C=C1CC[C@@H]2[C@](C)(CO)[C@H](O)CC[C@@]2(C)[C@@H]1C/C=C1/C(=O)OC[C@H]1OC(C)=O , thanks.
## Result 13

## Task Query (molecule): CC(C)OC(=O)C(C)(C)Oc1ccc(C(=O)c2ccc(Cl)cc2)cc1 [FENOFIBRATE] ; field requested: Activity
## Result 32

## Task Param item = C=C1CC[C@@H]2[C@](C)(COS(=O)(=O)c3c(C)cc(C)cc3C)[C@H](O)CC[C@@]2(C)[C@@H]1C/C=C1/C(=O)OC[C@H]1OC(C)=O ; retrieve measured Activity.
## Result 12

## Task Need Activity of C=C1CC[C@@H]2[C@](C)(CO)[C@H](O)CC[C@@]2(C)[C@@H]1CCC1C(=O)OC[C@H]1O (stereo partly drawn) , thanks.
## Result 12

## Task Given the molecule C=C1CC[C@H]2[C@@](C)(CCC(=O)[C@@]2(C)C=O)[C@@H]1C/C=C1/C(=O)OC[C@H]1O , what is its reported Activity?
## Result 13

## Task For the molecule shown here, Cc1ccc(C)c(OCCCC(C)(C)C(=O)O)c1 [GEMFIBROZIL] , give the reported Activity.
## Result 30

* * *

For each record, write down the corresponding Activity.
# Test system: Rattus norvegicus
# Protocol details: Antidyslipidemic activity in Charles foster rat assessed as decrease in triton WR-1339-induced total cholesterol level in plasma at 100 mg/kg, po after 18 hrs relative to triton-treated rat
# Assay type: functional
# Design: scale not given: the % may be the effect or the level left
Just the number please, in %, no unit attached.

## Task Activity for C=C1CC[C@@H]2[C@](C)(COS(=O)(=O)c3ccc(C)cc3)[C@H](O)CC[C@@]2(C)[C@@H]1C/C=C1/C(=O)OC[C@H]1O ?
## Result 33

## Task Quick one: Activity of CC1CC[C@@H]2[C@](C)(CO)[C@H](O)CC[C@@]2(C)[C@@H]1C/C=C1/C(=O)OC[C@H]1O (stereo partly specified) ?
## Result 14

## Task What measured Activity goes with C=C1CC[C@@H]2[C@](C)(COS(=O)(=O)c3c(C)cc(C)cc3C)[C@H](O)CC[C@@]2(C)[C@@H]1C/C=C1/C(=O)OC[C@H]1O ?
## Result 22

## Task Param item = C=C1CC[C@@H]2[C@](C)(CO)[C@H](O)CC[C@@]2(C)[C@@H]1C/C=C1\C=COC1=O ; retrieve measured Activity.
## Result 19

## Task Recorded Activity of CC1CC[C@@H]2[C@](C)(CO)[C@H](O)CC[C@@]2(C)[C@@H]1CCC1C(=O)OC[C@H]1O (stereo partly specified) , please.
## Result 11

## Task Endpoint output: Activity of C=C1CC[C@@H]2[C@]3(C)COC(C)(C)O[C@@H]3CC[C@@]2(C)[C@@H]1C/C=C1/C(=O)OC[C@H]1O . Value?
## Result 16
